systemName: T1, Human CD27 ECD (ECD 1-173, His6) (human, UniProt P26842 21-193, biotinylated on amine residues (NHS-ester) where used biotinylated)
T1 construct: also called biotinylated human CD27 ECD
T1 sequence (P26842 other isoform, or with tags, fused parts or gaps limits assumed): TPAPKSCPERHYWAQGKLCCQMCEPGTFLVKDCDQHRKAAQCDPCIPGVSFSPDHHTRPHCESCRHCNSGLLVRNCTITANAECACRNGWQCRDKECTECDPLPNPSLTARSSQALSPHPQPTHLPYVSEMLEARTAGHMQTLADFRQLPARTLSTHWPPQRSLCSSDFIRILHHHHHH
experimentSummary: single point Fab ELISA
readoutType: binding result

- binder: "F18 (Fab, V domains shown, also called H40/L40) VH: EVQLLESGGGLVQPGGSLRLSCAASGFTFSSYTMSWVRQAPGKGLEWVSAIDHGGGRTYYPDSVKGRFTISRDNSKNTLYLQMNSLRAEDTAVYYCARHRGNPFDYWGQGTLVTVSS VL: DIQMTQSPSSLSASVGDRVTITCRASKSVSTSGYSFMHWYQQKPGKAPKLLIYLASNLESGVPSRFSGSGSGTDFTLTISSLQPEDFATYYCQHSRELPWTFGQGTKVEIK"
  result: "binds"
- binder: "F297 (Fab, V domains shown, also called H190/L40) VH: EVQLLESGGGLVQPGGSLRLSCAASGFTFSSYTMSWVRQAPGKGLEWVSTIDRGGGSTWYPDSVKGRFTISRDNSKNTLYLQMNSLRAEDTAVYYCARHRGNPFDYWGQGTLVTVSS VL: DIQMTQSPSSLSASVGDRVTITCRASKSVSTSGYSFMHWYQQKPGKAPKLLIYLASNLESGVPSRFSGSGSGTDFTLTISSLQPEDFATYYCQHSRELPWTFGQGTKVEIK"
  result: "binds"
- binder: "F291 (Fab, V domains shown, also called H39/L172) VH: EVQLLESGGGLVQPGGSLRLSCAASGFTFSSYTMSWVRQAPGKGLEWVSYISSGGGNTYYPDSVKGRFTISRDNSKNTLYLQMNSLRAEDTAVYYCARHRGNPFDYWGQGTLVTVSS VL: DIQMTQSPSSLSASVGDRVTITCRASKSVSHIRWSFMHWYQQKPGKAPKLLIYLASNLESGVPSRFSGSGSGTDFTLTISSLQPEDFATYYCQHSRELPWTFGQGTKVEIK"
  result: "binds"

Entry source: patent US20130243795A1
